assay comment: urinary and bile juice recovery after subcutaneous injection
Format: in vivo
measurement parameters: urine and bile, sc; during 2 hours after subcutaneous injection (20 mg/kg); read-out: urinary and bile juice recovery (total)
property label: dose excreted at 2 h (%)

[[record]]
compound = "CC(C)(O/N=C(\\C(=O)N[C@@H]1C(=O)N2C(C(=O)[O-])=C(C[N+]3(C)CCN(C(=O)c4ccc(O)c(O)c4)CC3)CS[C@H]12)c1csc(N)n1)C(=O)O [No. 8]"
property_label = "dose excreted at 2 h"
assay_result = 70.4


Origin of the recorded values: patent US5143910A
